All values here come from patent US6756375B2.

- test-target: human estrogen receptor β (hERβ) (Homo sapiens, UniProt Q92731)
- Sequence (Q92731 whole entry): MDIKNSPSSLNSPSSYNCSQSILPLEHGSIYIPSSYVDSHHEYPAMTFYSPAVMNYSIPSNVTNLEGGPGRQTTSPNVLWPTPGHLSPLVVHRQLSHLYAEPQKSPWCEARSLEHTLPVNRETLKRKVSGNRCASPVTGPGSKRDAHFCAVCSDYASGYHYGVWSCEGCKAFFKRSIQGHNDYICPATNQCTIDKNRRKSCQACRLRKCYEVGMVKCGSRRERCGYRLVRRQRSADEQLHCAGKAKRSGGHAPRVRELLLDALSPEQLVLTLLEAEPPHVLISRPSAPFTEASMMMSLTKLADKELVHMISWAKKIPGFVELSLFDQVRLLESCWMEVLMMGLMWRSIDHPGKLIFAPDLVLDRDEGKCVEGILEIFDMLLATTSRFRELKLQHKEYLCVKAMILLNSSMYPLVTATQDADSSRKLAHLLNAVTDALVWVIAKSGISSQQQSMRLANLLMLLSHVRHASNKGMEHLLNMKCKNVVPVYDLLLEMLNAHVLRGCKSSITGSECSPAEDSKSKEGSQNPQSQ
- procedure-summary: Antiestrogenic activity in the in vitro bioassay: recombinant CHO cells co-transfected with hERβ, rat oxytocin promoter and luciferase reporter gene
- Assay type: cell-based
- condition-context: potency ratio relative to standard ICI 164.384; inhibition of estradiol-induced luciferase transactivation via hERβ in CHO cells
- Protocol: The estrogenic and antiestrogenic activity of compounds is determined in an in vitro bioassay with recombinant Chinese hamster ovary (CHO) cells stably co-transfected with the human estrogen receptor α (hERα) or β receptor (hERβ), the rat oxytocin promoter (RO) and the luciferase reporter gene (LUC). […]
endpoint-label: ERβ antagonism

>>> print(df.to_string())
                           molecular_string       obs_value
0  Oc1ccc2c(c1)Cc1c-2cc2ccc(O)cc2c1-c1ccc(OC(F)(F)F)cc1  ++ (> 40%: ++)
1  Oc1ccc2c(c1)Cc1c-2cc2ccc(O)cc2c1-c1ccccc1C(F)(F)F  ++ (> 40%: ++)
